Tested on: L1210 leukemia ip in BDF1 mice, survival T/C
Assay: NCI In Vivo Anticancer Drug Screen. Data for tumor model L1210 Leukemia (intraperitoneal) in B6D2F1 (BDF1) mice
Conditions: endpoint: mean survival time; dose: 50.0 mg/kg/injection; schedule: Q01DX001 (ip); vehicle: saline; higher = longer survival
Method: The antitumor activity of compounds was measured in mice bearing transplantable tumors. Survival or tumor size were measured and the results are expressed as the measurement made in the treated group (T) divided by the measurement made in the vehicle treated control group (C). The tumor model used in this assay is L1210 Leukemia (intraperitoneal) in B6D2F1 (BDF1) mice
Inconclusive results and toxic doses are left out.
compounds and their reported T/C

Below are worked cases with known answers.
- compound: "CN(C)CCC#N"
  testedTarget: "L1210 leukemia ip in BDF1 mice, survival T/C"
  resultValue: "97 % of control"
- compound: "CC1(C)CC(=O)C(c2ccccc2[N+](=O)[O-])=C(O)C1"
  testedTarget: "L1210 leukemia ip in BDF1 mice, survival T/C"
  resultValue: "102 % of control"
- compound: "C1CCC(N2CC3CCCC2O3)CC1 (stereo not given)"
  testedTarget: "L1210 leukemia ip in BDF1 mice, survival T/C"
  resultValue: "101 % of control"

Would you mind telling me what T/C value was observed for CC(=O)C(Cc1ccccc1)(c1ccccc1)c1ccccc1 ?
103 % of control

Can you check Ic1cccc(/C=N/Nc2nnc(N/N=C/c3cccc(I)c3)c3ccccc23)c1 next?
102 % of control

And the next one, CC[N+](C)(CC)CCCN(C)C(=O)C(c1ccccc1)c1ccccc1 ?
92 % of control

* * *

test system: L1210 leukemia ip in BDF1 mice, survival T/C; test: NCI In Vivo Anticancer Drug Screen. Data for tumor model L1210 Leukemia (intraperitoneal) in B6D2F1 (BDF1) mice; conditions: endpoint: mean survival time; dose: 100.0 mg/kg/injection; schedule: Q01DX009 (ip); vehicle: saline; higher = longer survival
Toxic doses and inconclusive results are not listed.
parameterMeasured: T/C

- smilesEntry: "O=C(CCBr)NCNC(=O)CCBr"
  testedTarget: "L1210 leukemia ip in BDF1 mice, survival T/C"
  resultValue: "86 % of control"
- smilesEntry: "CCC(=O)OC/C=C/c1ccccc1"
  testedTarget: "L1210 leukemia ip in BDF1 mice, survival T/C"
  resultValue: "95 % of control"
- smilesEntry: "CN(C)CCC#N"
  testedTarget: "L1210 leukemia ip in BDF1 mice, survival T/C"
  resultValue: "108 % of control"
- smilesEntry: "C[S+](C)CCCN"
  testedTarget: "L1210 leukemia ip in BDF1 mice, survival T/C"
  resultValue: "94 % of control"
- smilesEntry: "COc1cccc(OC)c1OC(=O)Nc1ccccc1C(F)(F)F"
  testedTarget: "L1210 leukemia ip in BDF1 mice, survival T/C"
  resultValue: "98 % of control"

Record request: T/C value, item O=C1CSCC(=O)N1
102 % of control

Next up: CCOC(=O)CCC(C)=O
102 % of control

Now the molecule C(=Nc1ccccc1)c1ccccc1
98 % of control

* * *

Tested on: L1210 leukemia ip in BDF1 mice, survival T/C
Test: NCI In Vivo Anticancer Drug Screen. Data for tumor model L1210 Leukemia (intraperitoneal) in B6D2F1 (BDF1) mice
Settings: endpoint: mean survival time; dose: 100.0 mg/kg/injection; schedule: Q01DX009 (ip); vehicle: Klucel (hydroxypropylcellulose) (HPC); higher = longer survival
Description: The antitumor activity of compounds was measured in mice bearing transplantable tumors. Survival or tumor size were measured and the results are expressed as the measurement made in the treated group (T) divided by the measurement made in the vehicle treated control group (C). The tumor model used in this assay is L1210 Leukemia (intraperitoneal) in B6D2F1 (BDF1) mice
Toxic doses and inconclusive results are not listed.
parameterMeasured: T/C

For orientation, consider the following solved cases.
- molecule: "COc1ccc(NC(=O)NCc2ccccc2Cl)c(OC)c1"
  resultValue: "102 % of control"
- molecule: "CCc1ccc(NS(=O)(=O)c2c(C)cc(C)cc2C)cc1"
  resultValue: "101 % of control"
- molecule: "Cc1ccc(C)c(NC(=O)Oc2ccc(F)cc2Cl)c1"
  resultValue: "90 % of control"
- molecule: "CCN(CC)C(=O)N1CCN(C)CC1"
  resultValue: "101 % of control"
- molecule: "Cc1ccc(S(=O)(=O)OCCS(C)(=O)=O)cc1"
  resultValue: "103 % of control"
- molecule: "C/C=C1\\CCC2C(=C1C)CC1C2CC=C2CC(OC(C)=O)CCC21C (centres undefined)"
  resultValue: "97 % of control"
- molecule: "N#CCCCc1ccccc1"
  resultValue: "104 % of control"
- molecule: "CC(=O)Nc1ccc(/C=C/c2ccc([N+](=O)[O-])cc2)cc1"
  resultValue: "100 % of control"

# T/C lookup, item c1ccc2oc(CCCCc3nc4ccccc4o3)nc2c1
91 % of control

* * *

T/C values, listed per item
Tested on: L1210 leukemia ip in BDF1 mice, survival T/C
Experiment: NCI In Vivo Anticancer Drug Screen. Data for tumor model L1210 Leukemia (intraperitoneal) in B6D2F1 (BDF1) mice
Conditions: endpoint: mean survival time; dose: 100.0 mg/kg/injection; schedule: Q04DX003 (ip); vehicle: saline with Tween-80; higher = longer survival
Description: The antitumor activity of compounds was measured in mice bearing transplantable tumors. Survival or tumor size were measured and the results are expressed as the measurement made in the treated group (T) divided by the measurement made in the vehicle treated control group (C). The tumor model used in this assay is L1210 Leukemia (intraperitoneal) in B6D2F1 (BDF1) mice
Toxic doses and inconclusive results are not listed.

Some solved cases for reference:
- molecule: "Nc1ccnc2snnc12"
  T/C: "102 % of control"
- molecule: "CCCCNC(=O)C1C2C=CC(CC2)C1C(=O)NCCCC (stereo unspecified)"
  T/C: "104 % of control"
- molecule: "O=C(NCCc1nc(-c2nc(C(=O)O)cs2)cs1)c1ccccc1"
  T/C: "103 % of control"
- molecule: "O=C1NC2C(NC(=O)N2Cl)N1Cl (stereo unspecified)"
  T/C: "105 % of control"
- molecule: "COC1OC(COC(c2ccccc2)(c2ccccc2)c2ccccc2)C(OC)C(OC)C1OC (stereo unspecified)"
  T/C: "93 % of control"

What does the data say about its T/C? Entry: CC1(C)OC2OC(COC(=O)c3ccccc3)C(OC(=O)Nc3ccccc3)C2O1 (stereo unspecified)
93 % of control

Next: Cc1cc(OC(=O)Nc2cccc(Cl)c2C)ccc1Cl
93 % of control

# repeat for c1ccc2sc(SN3CCOCC3)nc2c1
100 % of control

Proceed to O=C(O)CSCc1nc2ccccc2[nH]1
101 % of control

Please do the same for CCCC[N+](C)(C)CCCOC(=O)C1C2CC3OC(=O)C1C3C2 (stereo unspecified) as well.
103 % of control

Query Nc1cccc(CCCCOc2ccccc2)c1 next
97 % of control

Can you check CC(C)=CCCOC(N)=O next?
104 % of control

Repeat with CC1(c2ccccc2)CCc2ccccc21 (stereo unspecified)
100 % of control

Now the same for CC(=O)Nc1ccc(S(=O)(=O)NC(=O)NCCC(C)C)cc1
94 % of control

Quick one: N#CCC(NC(=O)OCc1ccccc1)C(=O)OCc1ccccc1 (stereo unspecified)
98 % of control

What would you report for Cc1ncc(CO)c(/C=N/OCc2nnc(Nc3ccccc3)s2)c1O ?
92 % of control

Check ClCc1ccc2ccccc2n1 too.
102 % of control

* * *

Item-by-item account of T/C
tested on: L1210 leukemia ip in BDF1 mice, survival T/C; assay: NCI In Vivo Anticancer Drug Screen. Data for tumor model L1210 Leukemia (intraperitoneal) in B6D2F1 (BDF1) mice; details: endpoint: mean survival time; dose: 200.0 mg/kg/injection; schedule: Q04DX003 (ip); vehicle: saline with Tween-80; higher = longer survival
Inconclusive results and toxic doses are left out.

Some molecules with recorded T/C:
- molecule: "O/N=C(/CN1CCCCC1)c1ccccc1"
  resultValue: "98 % of control"
- molecule: "CC(CC(C)(C)C)OS(=O)(=O)c1ccc(Br)cc1 (stereo unspecified)"
  resultValue: "101 % of control"
- molecule: "CC(C)C(NC(=O)CCNC(=O)OCc1ccccc1)C(=O)O (stereo unspecified)"
  resultValue: "97 % of control"
- molecule: "CC(=O)Oc1cccc(OC(=O)Nc2cccc(Cl)c2C)c1"
  resultValue: "86 % of control"

Item under review: CCC1COC(Nc2cccc3c2CCCC3)=N1 (stereo unspecified) . Reported T/C?
92 % of control

Moving on to Cc1cc(OC(=O)Nc2cccc(Cl)c2C)ccc1Cl
91 % of control
